- SYSTEM_NAME: human TLR7 (Homo sapiens)
- Sequence (Q9NYK1 27-1049): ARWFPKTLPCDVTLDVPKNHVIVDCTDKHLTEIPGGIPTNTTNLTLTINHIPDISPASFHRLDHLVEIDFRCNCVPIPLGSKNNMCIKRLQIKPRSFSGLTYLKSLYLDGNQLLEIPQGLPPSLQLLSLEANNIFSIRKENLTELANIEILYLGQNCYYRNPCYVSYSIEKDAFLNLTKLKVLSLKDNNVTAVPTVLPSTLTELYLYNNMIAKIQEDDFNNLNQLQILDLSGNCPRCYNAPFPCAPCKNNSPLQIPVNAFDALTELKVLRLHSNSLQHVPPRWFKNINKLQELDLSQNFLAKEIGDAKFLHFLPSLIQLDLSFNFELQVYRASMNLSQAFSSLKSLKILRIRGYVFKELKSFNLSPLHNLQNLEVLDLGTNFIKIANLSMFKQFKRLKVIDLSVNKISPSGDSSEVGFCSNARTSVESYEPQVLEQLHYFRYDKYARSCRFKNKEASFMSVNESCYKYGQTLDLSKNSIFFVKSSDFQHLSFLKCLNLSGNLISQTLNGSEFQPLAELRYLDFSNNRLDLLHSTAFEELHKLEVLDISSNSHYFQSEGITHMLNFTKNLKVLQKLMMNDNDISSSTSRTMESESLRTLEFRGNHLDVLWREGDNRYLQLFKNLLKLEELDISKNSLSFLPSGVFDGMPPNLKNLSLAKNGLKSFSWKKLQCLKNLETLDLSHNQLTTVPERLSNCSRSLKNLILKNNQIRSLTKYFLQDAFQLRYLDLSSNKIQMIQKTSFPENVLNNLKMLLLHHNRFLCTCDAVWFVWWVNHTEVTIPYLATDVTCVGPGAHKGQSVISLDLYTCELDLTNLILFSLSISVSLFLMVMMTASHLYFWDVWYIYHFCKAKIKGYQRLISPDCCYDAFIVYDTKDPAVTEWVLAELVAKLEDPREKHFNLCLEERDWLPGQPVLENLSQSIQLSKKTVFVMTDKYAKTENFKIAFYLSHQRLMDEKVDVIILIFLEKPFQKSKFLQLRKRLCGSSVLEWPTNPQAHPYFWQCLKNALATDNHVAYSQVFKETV
- EXPERIMENTAL_DETAILS: TLR7 inhibition reporter assay (HEK-Blue cells, SEAP reporter, gardiquimod stimulation)
- DETAILS: HEK-Blue cells overexpressing human TLR7, gardiquimod 7.5 μM
READOUT: IC50 (nM)

See these solved cases before continuing.
# IC50 (compound: COc1ccc(-c2[nH]c3ccc(C4CCN(Cc5ccc(N6CCN(C)CC6)cc5)CC4)cc3c2C)cc1OC ) is 687

For COc1ccc(-c2[nH]c3ccc(C4CCN(C(=O)CNCC#N)CC4)cc3c2C(C)C)cc1OC the compound record lists IC50 as 21

[A] COc1ccc(-c2[nH]c3ccc(C4CCN(C(=O)CN5CCN(CC(=O)NC(C)C)CC5)CC4)cc3c2C(C)C)cc1OC
[B] COc1ccc(-c2[nH]c3ccc(C4CCN(Cc5csnn5)CC4)cc3c2C)cc1OC
Query block: Field: entry with larger IC50 (options A / B ). Mark your selection by writing its label.
Result block: B

====

- SYSTEM_NAME: human TLR9 (Homo sapiens, UniProt Q9NR96)
- Sequence (Q9NR96 26-1032): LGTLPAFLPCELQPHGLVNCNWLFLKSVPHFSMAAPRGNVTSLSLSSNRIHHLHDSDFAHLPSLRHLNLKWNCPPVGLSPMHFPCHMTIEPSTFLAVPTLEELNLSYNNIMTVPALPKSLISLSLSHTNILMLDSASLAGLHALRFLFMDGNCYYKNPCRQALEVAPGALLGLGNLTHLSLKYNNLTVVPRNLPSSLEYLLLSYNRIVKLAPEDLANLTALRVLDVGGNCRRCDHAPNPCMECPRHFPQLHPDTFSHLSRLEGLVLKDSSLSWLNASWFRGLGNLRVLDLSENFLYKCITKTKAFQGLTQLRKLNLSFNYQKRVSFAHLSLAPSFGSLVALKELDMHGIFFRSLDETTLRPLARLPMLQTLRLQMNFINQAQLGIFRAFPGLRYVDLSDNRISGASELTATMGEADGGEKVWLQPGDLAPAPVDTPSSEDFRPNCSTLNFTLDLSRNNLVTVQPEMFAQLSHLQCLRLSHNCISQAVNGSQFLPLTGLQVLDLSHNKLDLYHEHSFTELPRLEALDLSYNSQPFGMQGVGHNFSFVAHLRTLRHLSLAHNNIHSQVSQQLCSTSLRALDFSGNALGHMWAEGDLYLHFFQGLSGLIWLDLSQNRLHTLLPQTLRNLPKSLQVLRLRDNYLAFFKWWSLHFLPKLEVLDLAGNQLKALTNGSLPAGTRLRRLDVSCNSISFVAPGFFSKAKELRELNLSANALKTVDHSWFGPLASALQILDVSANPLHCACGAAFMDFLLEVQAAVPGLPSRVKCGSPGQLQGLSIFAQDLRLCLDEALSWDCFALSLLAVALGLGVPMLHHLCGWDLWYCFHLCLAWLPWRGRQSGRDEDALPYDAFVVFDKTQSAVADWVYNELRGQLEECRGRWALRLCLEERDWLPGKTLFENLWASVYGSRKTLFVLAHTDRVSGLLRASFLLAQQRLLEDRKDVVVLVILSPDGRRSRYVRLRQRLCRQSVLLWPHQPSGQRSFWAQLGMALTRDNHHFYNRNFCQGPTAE
- EXPERIMENTAL_DETAILS: TLR9 inhibition reporter assay (HEK-Blue cells, SEAP reporter, ODN2006 stimulation)
- DETAILS: HEK-Blue cells overexpressing human TLR9, ODN2006 5 nM
pIC50: −log10 of the molar value.
READOUT: pIC50

[1] CCOC(=O)C1CC1CN1CCC(N2CCC(c3ccc4[nH]c(-c5ccc(OC)c(OC)c5)c(C)c4c3)CC2)CC1 (centres unmarked)
[2] COc1ccc(-c2[nH]c3ccc(C4CCN(C(=O)CN[C@H](CO)CC(C)C)CC4)cc3c2C(C)C)cc1OC
Query block: From the items above, decide which of 1 and 2 has the lower pIC50 reading. # reply format: chosen label
Result block: 2

[a] COc1ccc(-c2[nH]c3ccc(C4CCN(CCN(C)C5COC5)CC4)cc3c2C)cc1OC
[b] COc1ccc(-c2[nH]c3ccc(C4CCN(C5CCN(Cc6ccccc6)CC5)CC4)cc3c2C)cc1OC
Query block: Would you let me know which has the greater pIC50 value, a or b ? Select an item and report its label.
Result block: b

[I] C#CCCCCC(=O)NCCN1CCC(c2ccc3[nH]c(-c4ccc(OC)c(OC)c4)c(C(C)C)c3c2)CC1
[II] COc1ccc(-c2[nH]c3ccc(C4CCN(C(=O)CNC[C@@H](F)C(C)(C)O)CC4)cc3c2C(C)C)cc1OC
[III] COc1ccc(-c2[nH]c3ccc(C4CCN(C(=O)CN5CCC[C@@H](C(=O)N6CCC(N(C)C)CC6)C5)CC4)cc3c2C(C)C)cc1OC
[IV] COc1ccc(-c2[nH]c3ccc(C4CCN(Cc5ccccn5)CC4)cc3c2C)cc1OC
Query block: Would you mind ranking these molecules by ascending pIC50? Put the labels in the requested order and write them down.
Result block: II, I, IV, III
(II: 4.81, I: 5.41, IV: 6.00, III: 6.25)

[P] CCc1c(-c2ccc(OC)c(OC)c2)[nH]c2ccc(C3CCN(C(=O)CN4CCN(C(=O)C5CCCO5)CC4)CC3)cc12 (centres unmarked)
[Q] COc1ccc(-c2[nH]c3ccc(C4CCN(C(=O)CNCCC(C)O)CC4)cc3c2C)cc1OC (centres unmarked)
[R] COc1ccc(-c2[nH]c3ccc(C4CCN(CC(=O)N(C)C)CC4)cc3c2C(C)C)cc1OC
Query block: Put the items in order so that reported pIC50 rises from first to last. Present the labels in the sequence the task asks for.
Result block: P, Q, R
(P: 4.71, Q: 5.41, R: 5.86)

[I] COc1ccc(-c2[nH]c3ccc(C4CCNCC4F)cc3c2C(C)C)cc1OC (single isomer, unassigned) [Example 321]
[II] CCc1c(-c2ccc(OC)c(OC)c2)[nH]c2ccc(C3CCN(C(=O)CN4CCOCC4)CC3)cc12
[III] COc1ccc(-c2[nH]c3ccc(C4CCN(C5CCCN(CC6CC6)CC5)CC4)cc3c2C)cc1OC (centres unmarked)
[IV] CCN(CC)C(=O)C1CCCN(CC(=O)N2CCC(c3ccc4[nH]c(-c5ccc(OC)c(OC)c5)c(CC(F)(F)F)c4c3)CC2)C1 (centres unmarked) [Example 418]
Query block: Hey, quick one: sort these by pIC50, low to high? Write the labels in rank order as requested.
Result block: II, I, IV, III
(II: 4.48, I: 5.35, IV: 5.84, III: 6.71)

[I] COc1ccc(-c2[nH]c3ccc(C4CCN(CC(=O)NCCO)CC4)cc3c2C(C)C)cc1OC
[II] COc1ccc(-c2[nH]c3ccc(C4CCN(C(=O)CNCCC(C)O)CC4)cc3c2C(C)C)cc1OC (centres unmarked)
Query block: Would you let me know which has the greater pIC50 value, I or II ? Write the label of whichever entry you select.
Result block: II

[P] COc1ccc(-c2[nH]c3ccc(C4CCN(CCN(C)CC(C)C)CC4)cc3c2C)cc1OC
[Q] COc1ccc(-c2[nH]c3ccc(C4CCNCC4F)cc3c2C(C)C)cc1OC (single isomer, unassigned) [Example 324]
[R] COc1ccc(-c2[nH]c3ccc(C4CCN(C(=O)CN(C)C(C)C)CC4)cc3c2C(C)C)cc1OC
Query block: Arrange items by their pIC50 values in increasing order. Could you list the labels in the order requested?
Result block: Q, R, P

[I] COc1ccc(-c2[nH]c3ccc(C4CCN(CCCO)CC4)cc3c2C)cc1OC
[II] COc1ccc(-c2[nH]c3ccc(C4CCNCC4F)cc3c2C(C)C)cc1OC (single isomer, unassigned) [Example 323]
[III] COc1ccc(-c2[nH]c3ccc(C4CCN(CC(=O)N(C)CCCN(C)C)CC4)cc3c2CC(F)(F)F)cc1OC
Query block: In this exercise, place the 3 molecules in ascending sequence of their recorded pIC50. // list labels; follow requested order
Result block: II, I, III
